Values compiled from PubChem BioAssay (EPA / NIEHS).

Test system: SERPINA7 (gene 6906)
Assay: CCTE_GLTED_hTBG: CCTE's human Thyroxine-binding Globulin (TBG) Inhibition Assay, Great Lakes Toxicology and Ecology Division (GLTED) Lab (AID 2284343);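 further: active chemicals lower fluorescence versus DMSO baseline by displacing probe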
Calls of active or inactive are those of the source. How the source made its calls: active means hit-call score of the fitted dose curve at least 0.9, where 1 is the maximum; inconclusive means response in the unintended direction; inactive means score below 0.9.
Here, each record is paired with measured AC50 data.
MEASURED QUANTITY: AC50

[[record]]
sample_smiles = "O=c1cc(-c2ccc(O)cc2)oc2cc(O)cc(O)c12"
measurement_target = "SERPINA7 (gene 6906)"
measured_quantity = "AC50"
reported_result = "38.2 µM (active)"

[[record]]
sample_smiles = "O=C(O)c1ccccc1O"
measurement_target = "SERPINA7 (gene 6906)"
measured_quantity = "AC50"
reported_result = "50 µM (active)"

[[record]]
sample_smiles = "O=C(O)C(F)(F)C(F)(F)C(F)(F)C(F)(F)C(F)(F)C(F)(F)C(F)(F)C(F)F"
measurement_target = "SERPINA7 (gene 6906)"
measured_quantity = "AC50"
reported_result = "73.1 µM (active)"

[[record]]
sample_smiles = "O=S(=O)(O)c1cc(S(=O)(=O)O)c2c(N=Nc3ccccc3)c(O)ccc2c1"
measurement_target = "SERPINA7 (gene 6906)"
measured_quantity = "AC50"
reported_result = "33.9 µM (active)"

[[record]]
sample_smiles = "CCCCCCCCCCCCOCCOS(=O)(=O)O"
measurement_target = "SERPINA7 (gene 6906)"
measured_quantity = "AC50"
reported_result = "50 µM (active)"

[[record]]
sample_smiles = "CCCCCCCCOC(=O)c1ccc(O)cc1"
measurement_target = "SERPINA7 (gene 6906)"
measured_quantity = "AC50"
reported_result = "7.24 µM (active)"


###

Test: ATG_CMV_CIS: Attagene CIS-FACTORIAL HepG2 Assay for human CMV (Internal Marker) (AID 2282928);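 further: endpoint acts as a background internal control marker rather than a target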
Conditions: HepG2 CMV promoter reporter, transcription factor profiling; actives raise or lower the signal
Activity calls are given as the source filed them. How the source made its calls: active means hit-call score of the fitted dose curve at least 0.9, where 1 is the maximum; inactive means score below 0.9.
Outcome codes: true for active, false for inactive

[[record]]
molecule = "C=CC(C)(CCC=C(C)C)OC(=O)CC (centres undefined)"
assigned_class = "false"

[[record]]
molecule = "CCO[Si](CC)(OCC)OCC"
assigned_class = "false"

[[record]]
molecule = "CCCO[Si](OCCC)(OCCC)OCCC"
assigned_class = "false"

[[record]]
molecule = "O=C(O)C1=NN(c2ccc(S(=O)(=O)O)cc2)C(=O)C1"
assigned_class = "false"

[[record]]
molecule = "CCCCCCCCCC(=O)OCC"
assigned_class = "false"

[[record]]
molecule = "CCCCCCCCOC(=O)c1ccc(O)cc1"
assigned_class = "false"

[[record]]
molecule = "CC1=CC(C)C(C=O)C(C)C1 (centres undefined) (tested in a mixture with another compound)"
assigned_class = "false"

[[record]]
molecule = "S=c1[nH][nH]c(=S)s1"
assigned_class = "false"

[[record]]
molecule = "CC=CC(=O)C1=C(C)C=CCC1(C)C"
assigned_class = "false"

[[record]]
molecule = "CCCCOCCOCCO"
assigned_class = "false"

[[record]]
molecule = "c1ccc(Cc2ccccc2)cc1"
assigned_class = "false"

[[record]]
molecule = "C=CC(C)CCCC(C)(C)O (centres undefined)"
assigned_class = "false"

[[record]]
molecule = "CCCCC1CCCCC(=O)O1 (centres undefined)"
assigned_class = "false"

[[record]]
molecule = "N#CCCCC(C#N)CCC#N (centres undefined)"
assigned_class = "false"

[[record]]
molecule = "NC(=O)c1cnccn1"
assigned_class = "false"

[[record]]
molecule = "CCCCCCC(O)CCOC(C)=O (centres undefined)"
assigned_class = "false"

[[record]]
molecule = "C/C=C(\\C)C(=O)OC/C=C(\\C)CCC=C(C)C"
assigned_class = "false"

[[record]]
molecule = "COC(=O)C(C)Oc1ccc(Oc2ncc(C(F)(F)F)cc2Cl)cc1 (centres undefined)"
assigned_class = "false"

[[record]]
molecule = "CNC(=C[N+](=O)[O-])NCCSCc1ccc(CN(C)C)o1"
assigned_class = "false"

[[record]]
molecule = "CC(=O)Nc1cc(S(=O)(=O)O)cc2cc(S(=O)(=O)O)c(N=Nc3ccccc3)c(O)c12"
assigned_class = "false"

[[record]]
molecule = "CC(=O)c1cccnc1"
assigned_class = "false"

[[record]]
molecule = "C=C(C)C(=O)OCCOCCOC(=O)C(=C)C"
assigned_class = "false"

[[record]]
molecule = "CCOC(=O)CC(C)C"
assigned_class = "false"

[[record]]
molecule = "CC(CO)(CO)[N+](=O)[O-]"
assigned_class = "false"

[[record]]
molecule = "Nc1cc([N+](=O)[O-])ccc1C(=O)O"
assigned_class = "false"

[[record]]
molecule = "C=CC(=O)OCC(CO)(COC(=O)C=C)COC(=O)C=C"
assigned_class = "true"

[[record]]
molecule = "Cc1cccc(O)c1"
assigned_class = "false"

[[record]]
molecule = "O=S(=O)(O)c1cc(S(=O)(=O)O)c2c(N=Nc3ccccc3)c(O)ccc2c1"
assigned_class = "false"

[[record]]
molecule = "NS(=O)(=O)c1cc(C(=O)O)c(NCc2ccco2)cc1Cl"
assigned_class = "false"


###

Molecular target: Peroxisome proliferator-activated receptor gamma (Homo sapiens)
Assay: ATG_PPARg_TRANS: Attagene TRANS-FACTORIAL HepG2 Assay for human Peroxisome Proliferator-activated Receptor-gamma (PPARg) (AID 2283007)
Results filed as inconclusive are left out. Active and inactive are the calls of the source. Rule for the calls: active = hit-call score of the fitted dose curve at least 0.9, where 1 is the maximum; inconclusive = response in the unintended direction; inactive = score below 0.9.
MEASURED QUANTITY: AC50

[[record]]
compound = "CCCc1ccc(N)cc1"
measured_quantity = "AC50"
reported_result = "inactive"

[[record]]
compound = "CC=CC(=O)C1=C(C)C=CCC1(C)C"
measured_quantity = "AC50"
reported_result = "inactive"

[[record]]
compound = "CC/C=C\\CCOC(=O)C(C)C"
measured_quantity = "AC50"
reported_result = "inactive"

[[record]]
compound = "COc1ccc(C(C)=O)cc1"
measured_quantity = "AC50"
reported_result = "inactive"

[[record]]
compound = "O=C1CCCCCCCCCCCC(=O)OCCO1"
measured_quantity = "AC50"
reported_result = "inactive"

[[record]]
compound = "C=COCC1CCC(COC=C)CC1 (stereo not given)"
measured_quantity = "AC50"
reported_result = "inactive"

[[record]]
compound = "[O-]/[N+](=N\\O)c1ccccc1"
measured_quantity = "AC50"
reported_result = "16.6 µM (active)"

[[record]]
compound = "CCC(=O)OC(C)(C)C1CC=C(C)CC1 (stereo not given)"
measured_quantity = "AC50"
reported_result = "inactive"

[[record]]
compound = "C=CCCCCCCCCC(=O)OCC"
measured_quantity = "AC50"
reported_result = "55.9 µM (active)"

[[record]]
compound = "N#CCCNCCC#N"
measured_quantity = "AC50"
reported_result = "inactive"

[[record]]
compound = "CCCCOCCOC(=O)c1ccccc1C(=O)OCCOCCCC"
measured_quantity = "AC50"
reported_result = "27.5 µM (active)"

[[record]]
compound = "C#C[C@]1(O)CC[C@H]2[C@@H]3CCc4cc(O)ccc4[C@H]3CC[C@@]21C"
measured_quantity = "AC50"
reported_result = "inactive"

[[record]]
compound = "CCC(=O)OC/C=C(\\C)CCC=C(C)C"
measured_quantity = "AC50"
reported_result = "inactive"

[[record]]
compound = "O=S1(=O)CC(Cl)(Cl)C(Cl)(Cl)C1"
measured_quantity = "AC50"
reported_result = "inactive"

[[record]]
compound = "CC(O)CN (stereo not given)"
measured_quantity = "AC50"
reported_result = "inactive"


###

Assay: ATG_NF_kB_CIS: Attagene CIS-FACTORIAL HepG2 Assay for human Nuclear Factor Kappa B (NF-kB) (AID 2282991)
Conditions: HepG2 Attagene cis-factorial NF-kB reporter mRNA; actives raise or lower the signal
Active and inactive are the calls of the source. Rule for the calls: active = hit-call score of the fitted dose curve at least 0.9, where 1 is the maximum; inactive = score below 0.9.
MEASURED QUANTITY: outcome

[[record]]
molecule = "CCC(=O)OCC=Cc1ccccc1"
reported_result = "inactive"

[[record]]
molecule = "CC(=O)c1ccc(C)cc1"
reported_result = "inactive"

[[record]]
molecule = "S=c1[nH][nH]c(=S)s1"
reported_result = "inactive"

[[record]]
molecule = "CCCCOCC(C)OCC(C)O (stereo unspecified)"
reported_result = "inactive"

[[record]]
molecule = "CC12CCC(C1)C(C)(C)C2O (stereo unspecified)"
reported_result = "inactive"

[[record]]
molecule = "CCCCCCCCOC(=O)c1ccc(O)cc1"
reported_result = "inactive"

[[record]]
molecule = "CCOC(=O)CC1(C)OCC(C)O1 (stereo unspecified)"
reported_result = "inactive"

[[record]]
molecule = "CCCCCCCCCCCCN1CCOCC1"
reported_result = "inactive"

[[record]]
molecule = "CCCc1ccc(N)cc1"
reported_result = "inactive"

[[record]]
molecule = "COc1cc(OC)c2ccc(=O)oc2c1"
reported_result = "inactive"

[[record]]
molecule = "COc1ccccc1O"
reported_result = "inactive"

[[record]]
molecule = "NNC(=O)OCc1ccccc1"
reported_result = "inactive"

[[record]]
molecule = "CC(C)(O)CCc1ccccc1"
reported_result = "inactive"

[[record]]
molecule = "CCC(C)(C)C1CCC(OC)CC1 (stereo unspecified)"
reported_result = "inactive"

[[record]]
molecule = "CCn1cc(C(=O)O)c(=O)c2ccc(C)nc21"
reported_result = "inactive"

[[record]]
molecule = "CC/C=C\\CCCCO"
reported_result = "inactive"

